Data provenance is the supplement of paper PMC4862054.

system: MDA-MB-436; test: normalised response (% of control), CellTiter-Glo; higher = more viable cells (100 = DMSO, 0 = benzethonium chloride kill control); conditions: incubation time: 72 h
Could you please report measured normalised response for the items listed next?
Answer as a quantity: numeral, then unit.

The observed normalised response for Cc1c(Cn2c(C)nc3c(C(=O)O)cc(N4CCOCC4)cc32)cccc1C(F)(F)F (10000 nM) when tested with MDA-MB-436 stands at 86.2%

The observed normalised response for COc1cc(CCc2cc(NC(=O)c3ccc(N4CC(C)NC(C)C4)cc3)n[nH]2)cc(OC)c1 (stereo not drawn) [AZD4547] (1000 nM) when tested with MDA-MB-436 stands at 98%

The observed normalised response for CCC/C=C/C=C/C(=O)O[C@H]1/C(=C/C(=O)OC)C[C@H]2C[C@H]([C@@H](C)O)OC(=O)C[C@H](O)C[C@@H]3C[C@H](OC(C)=O)C(C)(C)[C@](O)(C[C@@H]4C/C(=C/C(=O)OC)C[C@H](/C=C/C(C)(C)[C@]1(O)O2)O4)O3 [Bryostatin 1] (100 nM) when tested with MDA-MB-436 stands at 111%

The observed normalised response for CC[C@@]1(O)C(=O)OCc2c1cc1n(c2=O)Cc2cc3c(CN(C)C)c(O)ccc3nc2-1 [Topotecan] (10000 nM) when tested with MDA-MB-436 stands at 21%

The observed normalised response for O=C1c2c(O)ccc(O)c2C(=O)c2c(NCCNCCO)ccc(NCCNCCO)c21 [Mitoxantrone] (1000 nM) when tested with MDA-MB-436 stands at 40.4%

The observed normalised response for CCCCC/C=C/C=C1/C(=O)C=C[C@@H]1C/C=C\CCCC(=O)O [15D-PGJ2] (800 nM) when tested with MDA-MB-436 stands at 97.4%

The observed normalised response for O=S(=O)(c1cccc2cnccc12)N1CCCNCC1 [Fasudil] (50000 nM) when tested with MDA-MB-436 stands at 90.2%

The observed normalised response for Cc1ccc(Nc2nccc(N(C)c3ccc4c(C)n(C)nc4c3)n2)cc1S(N)(=O)=O [Pazopanib] (10000 nM) when tested with MDA-MB-436 stands at 106%

* * *

tested on: CAL-85-1; experiment: normalised viability (% of control), CellTiter-Blue; higher = more viable cells (about 100 = DMSO control); conditions: incubation time: 72 h
Could you please report measured normalised viability for the items listed next?
Answer as a quantity: numeral, then unit.

normalised viability in this record for Nc1ccccc1NC(=O)c1ccc(CNc2nccc(-c3cccnc3)n2)cc1 [Mocetinostat] (300 nM) : 85.8%

normalised viability in this record for O=C(NC[C@H](O)CO)c1ccncc1Nc1ccc(I)cc1F (300 nM) : 77.3%

normalised viability in this record for O=C(Nc1c[nH]nc1-c1nc2ccc(CN3CCOCC3)cc2[nH]1)NC1CC1 [AT9283] (300 nM) : 87.7%

normalised viability in this record for Nc1nc(=O)c2c([nH]1)NCC(CNc1ccc(C(=O)N[C@@H](CCC(=O)O)C(=O)O)cc1)N2C=O (mixture of isomers) [Folinic acid] (29.7 nM) : 100%

normalised viability in this record for CC[C@@]1(O)C(=O)OCc2c1cc1n(c2=O)Cc2cc3c(CN(C)C)c(O)ccc3nc2-1 [Topotecan] (30 nM) : 95.9%
